Cited source: patent US9844542B2

# study_system: rat mGluR5 (Rattus norvegicus)
# assay_protocol: mGluR5 calcium mobilization assay (FDSS, Fluo-4) in HEK 293A cells stably expressing rat mGluR5
# test_conditions: HEK cells transfected with rat mGluR5; antagonism of glutamate EC80 response; ± = standard error of at least three experiments
# Lookup of reported IC50 keyed by entry
The answer is to be given in nM; state only the numeric part.

# example entries with known answers
[
  {
    "record_smiles": "Cc1ncc(Oc2cc(C(=O)Nc3cccc(F)n3)c3nccn3c2)cn1",
    "IC50 / nM": 5780
  },
  {
    "record_smiles": "O=C(Nc1cccc(F)n1)c1cc(Oc2cncc(Cl)c2)cn2cnnc12",
    "IC50 / nM": 414
  },
  {
    "record_smiles": "COc1cncc(Oc2cc(C(=O)Nc3ccc(F)cn3)c3nccn3c2)c1",
    "IC50 / nM": 40
  },
  {
    "record_smiles": "Cc1cncc(Oc2cc(C(=O)Nc3cccc(C)n3)c3ncnn3c2)c1",
    "IC50 / nM": 160
  },
  {
    "record_smiles": "Cc1nc(NC(=O)c2cc(Oc3cncc(F)c3)cn3cnnc23)ccc1F",
    "IC50 / nM": 164
  }
]

Now for the compound whose IC50 we want.
[ask] For the compound shown here, Cc1csc(NC(=O)c2cc(Oc3cncc(Cl)c3)cn3ccnc23)n1 , give the reported IC50.
[reply] 182

###

# study_system: rat mGluR5 (Rattus norvegicus, UniProt P31424)
# Sequence (P31424 21-1171 isoform P31424-2 limits assumed): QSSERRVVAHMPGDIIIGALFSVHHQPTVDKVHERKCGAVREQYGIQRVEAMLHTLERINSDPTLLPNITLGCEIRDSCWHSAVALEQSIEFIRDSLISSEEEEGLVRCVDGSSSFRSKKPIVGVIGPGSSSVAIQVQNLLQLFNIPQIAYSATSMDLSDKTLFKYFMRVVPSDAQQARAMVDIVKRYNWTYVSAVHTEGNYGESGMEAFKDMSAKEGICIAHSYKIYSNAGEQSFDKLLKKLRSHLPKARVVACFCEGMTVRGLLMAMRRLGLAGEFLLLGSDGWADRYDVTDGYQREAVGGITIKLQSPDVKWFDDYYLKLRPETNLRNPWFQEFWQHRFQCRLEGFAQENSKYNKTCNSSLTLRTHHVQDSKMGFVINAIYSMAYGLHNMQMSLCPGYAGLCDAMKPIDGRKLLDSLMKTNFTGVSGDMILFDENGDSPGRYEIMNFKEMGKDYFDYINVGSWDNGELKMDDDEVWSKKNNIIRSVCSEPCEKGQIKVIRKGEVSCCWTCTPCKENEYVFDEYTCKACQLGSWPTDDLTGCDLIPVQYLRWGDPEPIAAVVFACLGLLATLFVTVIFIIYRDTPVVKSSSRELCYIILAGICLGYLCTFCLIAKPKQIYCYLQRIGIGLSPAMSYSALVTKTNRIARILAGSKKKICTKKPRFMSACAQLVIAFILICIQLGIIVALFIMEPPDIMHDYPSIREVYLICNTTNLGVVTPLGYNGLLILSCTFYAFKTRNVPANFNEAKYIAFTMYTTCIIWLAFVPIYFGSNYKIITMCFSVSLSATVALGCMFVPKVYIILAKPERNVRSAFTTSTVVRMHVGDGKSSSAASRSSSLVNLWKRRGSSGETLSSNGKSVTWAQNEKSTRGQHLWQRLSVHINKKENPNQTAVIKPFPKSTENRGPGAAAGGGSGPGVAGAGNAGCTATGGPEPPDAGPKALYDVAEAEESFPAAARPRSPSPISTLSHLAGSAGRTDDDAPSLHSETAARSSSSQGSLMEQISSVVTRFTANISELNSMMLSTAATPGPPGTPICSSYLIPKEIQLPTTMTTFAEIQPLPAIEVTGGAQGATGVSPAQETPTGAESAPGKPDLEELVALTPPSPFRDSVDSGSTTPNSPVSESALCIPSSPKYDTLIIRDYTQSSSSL
# assay_protocol: mGluR5 calcium mobilization assay (FDSS, Fluo-4) in HEK 293A cells stably expressing rat mGluR5
# test_conditions: HEK cells transfected with rat mGluR5; antagonism of glutamate EC80 response; ± = standard error of at least three experiments
# Method: Human embryonic kidney (HEK) cells transfected with rat or human mGluR5 were plated in clear bottom assay plates for assay in a Functional Drug Screening System (FDSS). […] Test compound was applied to cells 3 seconds after baseline readings were taken. […] The mGluR5 activity was determined using the calcium mobilization assays in human embryonic kidney cells as described herein below, wherein the human embryonic kidney cells were transfected with rat mGluR5. […]
pIC50: −log10 of the molar value.
Values of pIC50 greater than or equal to 7 map to yes (1); values below map to no (0).

Known results for compounds:
[
  {
    "record_smiles": "Cc1ncc(Oc2cc(C(=O)Nc3ccccn3)c3nccn3c2)cn1",
    "group": "no (0)"
  },
  {
    "record_smiles": "O=C(Nc1nc(C(F)F)cs1)c1cc(Oc2cncnc2)cn2ncnc12",
    "group": "no (0)"
  },
  {
    "record_smiles": "O=C(Nc1ccccn1)c1cc(Oc2cncc(F)c2)cn2ncnc12",
    "group": "yes (1)"
  },
  {
    "record_smiles": "CCc1cccc(NC(=O)c2cc(Oc3cncc(OC)c3)cn3ccnc23)n1",
    "group": "no (0)"
  },
  {
    "record_smiles": "COc1cncc(Oc2cc(C(=O)Nc3cccc(C)n3)c3nncn3c2)c1",
    "group": "no (0)"
  }
]

Continue with the next compound.
[ask] Is pIC50 for Cc1nc(NC(=O)c2cc(Oc3cncc(Cl)c3)cn3ncnc23)ccc1F at or above 7?
[reply] no (0)

###

# study_system: rat mGluR5 (Rattus norvegicus, UniProt P31424)
# assay_protocol: mGluR5 calcium mobilization assay (FDSS, Fluo-4) in HEK 293A cells stably expressing rat mGluR5
# test_conditions: HEK cells transfected with rat mGluR5; antagonism of glutamate EC80 response; ± = standard error of at least three experiments
recorded_endpoint: pIC50
For clarity, pIC50 is expressed as the negative log10 of concentration in mol/L.

[
  {
    "record_smiles": "COc1cncc(Oc2cc(C(=O)Nc3ccc(C)cn3)c3nncn3c2)c1",
    "pIC50": 5.44
  },
  {
    "record_smiles": "O=C(Nc1ccccn1)c1cc(Oc2cc(F)cnc2F)cn2ncnc12",
    "pIC50": 7.07
  },
  {
    "record_smiles": "Cc1nc(NC(=O)c2cc(Oc3cncnc3)cn3ncnc23)ccc1F",
    "pIC50": 6.53
  },
  {
    "record_smiles": "Cc1cccc(NC(=O)c2cc(Oc3cncc(F)c3)cn3cnnc23)n1",
    "pIC50": 7.14
  },
  {
    "record_smiles": "Cc1ccc(NC(=O)c2cc(Oc3cncc(F)c3)cn3ncnc23)nc1",
    "pIC50": 7.28
  }
]

[ask] What is its pIC50 for rat mGluR5 (Rattus norvegicus, UniProt P31424)? Entry: COc1ccc(NC(=O)c2cc(Oc3cccnc3)cn3ncnc23)nc1
[reply] 6.85

[ask] O=C(Nc1ccccn1)c1cc(Oc2cncc(O)c2)cn2ncnc12 , same question.
[reply] 7.36

[ask] Note, next up: COc1cncc(Oc2cc(C(=O)Nc3cccc(F)n3)c3ncnn3c2)c1
[reply] 6.59

[ask] What about this molecule? O=C(Nc1cc(F)ccn1)c1cc(Oc2cncc(F)c2)cn2ncnc12
[reply] 6.14

[ask] O=C(Nc1cccc(F)n1)c1cc(Oc2cncc(F)c2)cn2cnnc12 ?
[reply] 7.30
